Data provenance is patent US12441726B2.

target: BRG-1 (Homo sapiens, UniProt P51532); assay: ATPase catalytic activity assay (ADP-Glo), BRG-1
Sequence (P51532 whole entry): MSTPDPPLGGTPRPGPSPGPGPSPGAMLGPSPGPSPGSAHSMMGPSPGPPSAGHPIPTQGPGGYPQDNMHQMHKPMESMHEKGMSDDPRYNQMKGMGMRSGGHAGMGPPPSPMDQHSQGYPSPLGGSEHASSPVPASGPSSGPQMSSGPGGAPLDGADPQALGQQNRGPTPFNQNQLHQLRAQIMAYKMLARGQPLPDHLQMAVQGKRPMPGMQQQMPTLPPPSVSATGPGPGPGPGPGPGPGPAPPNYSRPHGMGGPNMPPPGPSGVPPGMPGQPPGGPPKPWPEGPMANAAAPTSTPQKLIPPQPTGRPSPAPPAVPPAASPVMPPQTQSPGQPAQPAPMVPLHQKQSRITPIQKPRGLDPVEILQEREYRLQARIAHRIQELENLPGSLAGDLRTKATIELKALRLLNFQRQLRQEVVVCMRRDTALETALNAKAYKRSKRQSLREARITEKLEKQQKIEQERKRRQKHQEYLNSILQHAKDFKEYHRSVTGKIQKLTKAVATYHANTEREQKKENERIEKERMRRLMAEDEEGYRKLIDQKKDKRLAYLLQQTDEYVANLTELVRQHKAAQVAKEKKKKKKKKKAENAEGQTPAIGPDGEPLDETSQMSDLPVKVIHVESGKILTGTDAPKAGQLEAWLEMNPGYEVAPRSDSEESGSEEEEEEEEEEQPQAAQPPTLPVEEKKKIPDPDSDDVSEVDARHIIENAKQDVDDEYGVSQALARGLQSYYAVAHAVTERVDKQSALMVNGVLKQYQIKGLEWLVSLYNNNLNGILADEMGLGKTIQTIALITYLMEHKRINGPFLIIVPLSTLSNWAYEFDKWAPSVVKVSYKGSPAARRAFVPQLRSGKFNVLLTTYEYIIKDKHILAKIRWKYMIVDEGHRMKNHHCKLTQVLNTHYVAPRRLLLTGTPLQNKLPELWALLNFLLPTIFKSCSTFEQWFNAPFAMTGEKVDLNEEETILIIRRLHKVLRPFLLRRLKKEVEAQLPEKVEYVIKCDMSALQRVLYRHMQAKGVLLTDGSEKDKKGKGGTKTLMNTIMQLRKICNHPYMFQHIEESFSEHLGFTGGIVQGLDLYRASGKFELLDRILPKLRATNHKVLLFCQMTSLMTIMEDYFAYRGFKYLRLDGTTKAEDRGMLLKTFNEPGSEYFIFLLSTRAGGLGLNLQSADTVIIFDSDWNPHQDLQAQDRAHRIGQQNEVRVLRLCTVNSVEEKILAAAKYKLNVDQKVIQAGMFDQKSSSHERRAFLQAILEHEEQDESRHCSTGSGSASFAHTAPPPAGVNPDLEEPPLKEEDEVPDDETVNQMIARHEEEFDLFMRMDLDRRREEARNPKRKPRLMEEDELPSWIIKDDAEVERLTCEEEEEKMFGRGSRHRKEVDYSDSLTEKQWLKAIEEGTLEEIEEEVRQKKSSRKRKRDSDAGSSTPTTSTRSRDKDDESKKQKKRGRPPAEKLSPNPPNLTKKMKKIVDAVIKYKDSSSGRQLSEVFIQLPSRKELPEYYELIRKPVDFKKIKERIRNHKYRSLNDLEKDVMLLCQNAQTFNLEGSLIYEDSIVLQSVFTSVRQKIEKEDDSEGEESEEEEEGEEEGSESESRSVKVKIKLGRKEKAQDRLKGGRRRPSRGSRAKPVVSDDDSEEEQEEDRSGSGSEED
pIC50: −log10 of the molar value.
Readings of pIC50 for the listed molecules

- Entry smiles: "CO[C@H]1CCN(c2cncc(-c3ccc4cnc(CNC(=O)c5ccc6c(c5)[C@](C)(F)COC6)cc4c3)n2)C1"
  pIC50: "> 7.00"
- Entry smiles: "Cc1cc(-c2ccc3cnc(CNC(=O)c4ccc5c(c4)[C@](C)(C#N)COC5)cc3n2)n(C)n1"
  pIC50: "< 6.00"
- Entry smiles: "C[C@@]1(C#N)COCc2ccc(C(=O)NCc3cc4c(cn3)CCN(c3ccnc(N5CCC5)n3)C4)cc21"
  pIC50: "6.00 to 6.30"
- Entry smiles: "C[C@@]1(C#N)COCc2ccc(C(=O)NCc3cc4nc(-n5cccn5)ccc4cn3)cc21"
  pIC50: "< 6.00"

* * *

# maps each entry to its IC50
biological target: BRM (Homo sapiens, UniProt P51531); test: ATPase catalytic activity assay (ADP-Glo), BRM; settings: BRM ATPase: IC50 (uM), 30 nM BRM, 400 μM ATP
Sequence (P51531 whole entry): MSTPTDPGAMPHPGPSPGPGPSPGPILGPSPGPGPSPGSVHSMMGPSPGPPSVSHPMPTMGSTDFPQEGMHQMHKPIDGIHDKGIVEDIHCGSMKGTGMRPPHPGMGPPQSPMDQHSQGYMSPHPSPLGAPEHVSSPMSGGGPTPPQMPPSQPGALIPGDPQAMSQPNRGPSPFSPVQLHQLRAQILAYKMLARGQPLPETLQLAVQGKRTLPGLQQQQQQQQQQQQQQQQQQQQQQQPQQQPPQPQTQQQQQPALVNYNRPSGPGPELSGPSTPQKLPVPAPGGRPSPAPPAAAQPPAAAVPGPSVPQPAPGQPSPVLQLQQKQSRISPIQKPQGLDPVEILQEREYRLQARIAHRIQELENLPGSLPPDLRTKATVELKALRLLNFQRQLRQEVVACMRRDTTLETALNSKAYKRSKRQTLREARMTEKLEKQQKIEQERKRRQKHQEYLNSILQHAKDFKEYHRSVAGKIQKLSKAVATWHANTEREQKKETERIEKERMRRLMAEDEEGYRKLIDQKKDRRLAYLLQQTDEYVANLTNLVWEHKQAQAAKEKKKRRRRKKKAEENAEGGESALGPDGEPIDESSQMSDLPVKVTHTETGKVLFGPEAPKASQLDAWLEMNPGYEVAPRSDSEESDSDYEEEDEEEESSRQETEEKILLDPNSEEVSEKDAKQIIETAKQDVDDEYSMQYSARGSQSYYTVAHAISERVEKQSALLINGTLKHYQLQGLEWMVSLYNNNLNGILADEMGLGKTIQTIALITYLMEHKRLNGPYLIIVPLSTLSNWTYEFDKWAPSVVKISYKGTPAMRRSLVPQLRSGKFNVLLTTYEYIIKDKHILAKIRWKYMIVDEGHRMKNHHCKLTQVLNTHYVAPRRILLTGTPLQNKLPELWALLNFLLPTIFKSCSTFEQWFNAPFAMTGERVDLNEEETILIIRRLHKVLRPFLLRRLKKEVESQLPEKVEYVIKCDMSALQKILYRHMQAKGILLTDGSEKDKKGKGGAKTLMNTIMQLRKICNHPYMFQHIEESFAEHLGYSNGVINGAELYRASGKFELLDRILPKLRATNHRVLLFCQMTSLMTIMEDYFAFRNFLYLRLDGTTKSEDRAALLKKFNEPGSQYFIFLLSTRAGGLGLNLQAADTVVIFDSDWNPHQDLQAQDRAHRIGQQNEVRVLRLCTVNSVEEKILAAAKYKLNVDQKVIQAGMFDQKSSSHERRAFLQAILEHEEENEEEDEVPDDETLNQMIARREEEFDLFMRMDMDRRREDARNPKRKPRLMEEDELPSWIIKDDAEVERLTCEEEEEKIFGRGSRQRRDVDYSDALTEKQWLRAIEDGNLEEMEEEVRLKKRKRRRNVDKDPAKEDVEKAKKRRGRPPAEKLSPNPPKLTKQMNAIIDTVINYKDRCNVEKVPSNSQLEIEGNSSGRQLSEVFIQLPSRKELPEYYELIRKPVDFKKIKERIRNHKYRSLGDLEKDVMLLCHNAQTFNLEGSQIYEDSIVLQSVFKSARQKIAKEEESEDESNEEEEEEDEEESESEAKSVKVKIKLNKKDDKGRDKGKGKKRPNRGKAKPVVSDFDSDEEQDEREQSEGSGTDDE
Readout kind: IC50

- Compound: "C[C@@]1(C#N)COCc2ccc(C(=O)NCc3cc4nc(-n5cccc(C6CC6)c5=O)ccc4cn3)cc21 [Compound 282]"
  Readout kind: "IC50"
  Observed result: "0.1 to 0.5 µM"
- Compound: "C[C@@]1(F)COCc2ccc(C(=O)NCc3cc4nc(-c5cccc(N6CCC6)n5)cnc4cn3)cc21 [Compound 214]"
  Readout kind: "IC50"
  Observed result: "< 0.1 µM"
- Compound: "Cc1cc(-c2ccc3cnc(CNC(=O)c4ccc5c(c4)[C@](C)(C#N)COC5)cc3n2)n(C)n1 [Compound 501]"
  Readout kind: "IC50"
  Observed result: "0.1 to 0.5 µM"
- Compound: "C[C@@H]1COCCN1c1nccc(-c2ccc3cnc(CNC(=O)c4ccc5c(c4)[C@](C)(C#N)COC5)cc3n2)n1 [Compound 363]"
  Readout kind: "IC50"
  Observed result: "< 0.1 µM"
- Compound: "C[C@@]1(C#N)COCc2ccc(C(=O)NCc3cc(N4CC(c5ccccc5)C4)cnn3)cc21 [Compound 46]"
  Readout kind: "IC50"
  Observed result: "> 1 µM"
- Compound: "CNC(=O)c1cccc(-c2ccc3cnc(CNC(=O)c4ccc5c(c4)[C@](C)(C#N)COC5)cc3n2)c1 [Compound 483]"
  Readout kind: "IC50"
  Observed result: "0.1 to 0.5 µM"
- Compound: "COc1nn(C(F)F)cc1-c1ccc2cnc(CNC(=O)c3cnc4c(c3)[C@](C)(F)COC4)cc2n1 [Compound 192]"
  Readout kind: "IC50"
  Observed result: "0.1 to 0.5 µM"

* * *

biological target: BRG-1 (Homo sapiens); test: ATPase catalytic activity assay (ADP-Glo), BRG-1

- Compound: "CN1Cc2cc(-c3ccc4cnc(CNC(=O)c5ccc6c(c5)[C@](C)(C#N)COC6)cc4n3)ccc2C1=O"
  IC50: "100 to 500 nM"
- Compound: "COC(=O)N1CCCC(c2ccc3cnc(CNC(=O)c4ccc5c(c4)[C@](C)(C#N)COC5)cc3n2)C1 (stereo partly shown)"
  IC50: "> 1000 nM"
- Compound: "CC1c2cc(CNC(=O)c3ccc4c(c3)[C@](C)(C#N)COC4)ncc2CCN1c1cncc(C2CC2)n1 (stereo partly shown)"
  IC50: "500 to 1000 nM"
- Compound: "C[C@@]1(C#N)COCc2ccc(C(=O)NCc3cc4nc(-c5cn(C6COC6)nc5CC(F)F)ccc4cn3)cc21"
  IC50: "> 1000 nM"
- Compound: "C[C@@]1(C#N)COCc2ccc(C(=O)NCc3cc4c(cn3)CCN(c3ccnc(N5CCC5)c3F)C4)cc21"
  IC50: "100 to 500 nM"
- Compound: "C[C@@]1(C#N)COCc2ccc(C(=O)NCc3cc4nc(-c5cccc(N6CCC6=O)n5)ccc4cn3)cc21"
  IC50: "100 to 500 nM"
- Compound: "C[C@@]1(C#N)COCc2ccc(C(=O)NCc3cc4nc(-c5ccnc(C6CC6)n5)ccc4cn3)cc21"
  IC50: "100 to 500 nM"

* * *

target: BRG-1 (Homo sapiens); assay: ATPase catalytic activity assay (ADP-Glo), BRG-1; details: 1 h, read-out: BRG1 Max % Inhibition, ADP-Glo, 30 nM BRG-1, 400 μM ATP

- Entry smiles: "C[C@@]1(F)COCc2ccc(C(=O)NCc3cc4cc(-c5cccc(N6CCC6)n5)ccc4cn3)cc21"
  Emax [%]: 96
- Entry smiles: "CN1CCN(c2cccc(-c3ccc4cnc(CNC(=O)c5ccc6c(c5)[C@](C)(C#N)COC6)cc4n3)n2)CC1"
  Emax [%]: 89
- Entry smiles: "COc1nn(C)cc1-c1ccc2cnc(CNC(=O)c3ccc4c(c3)[C@](C)(C#N)COC4)cc2n1"
  Emax [%]: 88
- Entry smiles: "C[C@@]1(C#N)COCc2ccc(C(=O)NCc3cc(SCc4ccccc4)ccn3)cc21"
  Emax [%]: 34
- Entry smiles: "C[C@@]1(C#N)COCc2ccc(C(=O)NCc3cc4nc(-c5cccc6c5ccn6CCO)ccc4cn3)cc21"
  Emax [%]: 95
- Entry smiles: "C[C@@]1(F)COCc2ncc(C(=O)NCc3cc4nc(-c5ccnc(N6CCC6)c5F)ccc4cn3)cc21"
  Emax [%]: 88
- Entry smiles: "C[C@@]1(C#N)COCc2ccc(C(=O)NCc3cc4cc(-c5ccnc(N6CCC6)c5F)ccc4cn3)cc21"
  Emax [%]: 95

* * *

molecular target: UniProt:P51531; test: ATPase catalytic activity assay (ADP-Glo), BRM; settings: BRM ATPase: IC50 (uM), 30 nM BRM, 400 μM ATP

- Entry smiles: "C[C@@]1(F)COCc2ccc(C(=O)NCc3cc(C#Cc4ccccc4)ccn3)cc21"
  IC50: "0.5 to 1 µM"
- Entry smiles: "C[C@@]1(C#N)COCc2ccc(C(=O)NCc3cc([C@@H]4C[C@H]4c4ccccc4)ccn3)cc21"
  IC50: "> 1 µM"
- Entry smiles: "C[C@@]1(C#N)COCc2ccc(C(=O)NCc3cc(SCc4ccccc4)ccn3)cc21"
  IC50: "0.1 to 0.5 µM"
- Entry smiles: "C[C@@]1(F)COCc2ncc(C(=O)NCc3cc4nc(-c5cncc(C6CC6)n5)ccc4cn3)cc21"
  IC50: "< 0.1 µM"
- Entry smiles: "Cc1cc(-c2ccc3cnc(CNC(=O)c4ccc5c(c4)[C@](C)(C#N)COC5)cc3n2)n[nH]1"
  IC50: "0.1 to 0.5 µM"
- Entry smiles: "C[C@@]1(C#N)COCc2ccc(C(=O)NCc3cc4nc(N5CCN(C6CCC6)C5=O)ccc4cn3)cc21"
  IC50: "0.1 to 0.5 µM"
- Entry smiles: "COC1(c2cccc(-c3ccc4cnc(CNC(=O)c5ccc6c(c5)[C@](C)(C#N)COC6)cc4n3)c2)COC1"
  IC50: "0.1 to 0.5 µM"
- Entry smiles: "C[C@H]1CN(c2nccc(-c3ccc4cnc(CNC(=O)c5ccc6c(c5)[C@](C)(C#N)COC6)cc4n3)n2)CCO1"
  IC50: "< 0.1 µM"
- Entry smiles: "COC(=O)c1cccc(-c2ccc3cnc(CNC(=O)c4ccc5c(c4)[C@](C)(C#N)COC5)cc3n2)c1"
  IC50: "< 0.1 µM"
- Entry smiles: "C[C@@]1(C#N)COCc2ccc(C(=O)NCc3cc4cc(-c5ccccc5)ncc4cn3)cc21"
  IC50: "0.1 to 0.5 µM"
- Entry smiles: "COC(=O)N1CCC(C#Cc2ccnc(CNC(=O)c3ccc4c(c3)[C@](C)(C#N)COC4)c2)CC1"
  IC50: "> 1 µM"
- Entry smiles: "C[C@@]1(C#N)COCc2ccc(C(=O)NCc3cc4nc(N5CCN(C6CC6)C5=O)ccc4cn3)cc21"
  IC50: "0.1 to 0.5 µM"
- Entry smiles: "C[C@@]1(C#N)COCc2ccc(C(=O)NCc3cc4nc(-c5cccc(N6CCCC6)n5)ccc4cn3)cc21"
  IC50: "< 0.1 µM"
- Entry smiles: "C[C@@]1(F)COCc2ccc(C(=O)NCc3cc4nc(-c5ccnc(C6CC6)n5)cnc4cn3)cc21"
  IC50: "< 0.1 µM"
- Entry smiles: "COc1cc(N2CCC2)ccc1-c1ccc2cnc(CNC(=O)c3ccc4c(c3)[C@](C)(C#N)COC4)cc2n1"
  IC50: "0.1 to 0.5 µM"

* * *

Measured IC50 by item
target: BRM (Homo sapiens, UniProt P51531); assay: ATPase catalytic activity assay (ADP-Glo), BRM; settings: BRM ATPase: IC50 (uM), 30 nM BRM, 400 μM ATP
Readout kind: IC50

- Entry smiles: "CC(C)n1ccc2c(-c3ccc4cnc(CNC(=O)c5ccc6c(c5)[C@](C)(C#N)COC6)cc4n3)cccc21"
  Tgt: "BRM (Homo sapiens, UniProt P51531)"
  Observed result: "< 0.1 µM"
- Entry smiles: "C[C@@]1(C#N)COCc2c(F)cc(C(=O)NCc3cc4nc(-c5ccccc5)ccc4cn3)cc21"
  Tgt: "BRM (Homo sapiens, UniProt P51531)"
  Observed result: "0.1 to 0.5 µM"
- Entry smiles: "COc1cc(F)cc2c1CCN(c1ccnc(CNC(=O)c3ccc4c(c3)[C@](C)(C#N)COC4)c1)C2"
  Tgt: "BRM (Homo sapiens, UniProt P51531)"
  Observed result: "< 0.1 µM"
- Entry smiles: "CN1C(=O)Cc2cc(-c3ccc4cnc(CNC(=O)c5ccc6c(c5)[C@](C)(C#N)COC6)cc4n3)ccc21"
  Tgt: "BRM (Homo sapiens, UniProt P51531)"
  Observed result: "0.1 to 0.5 µM"
- Entry smiles: "C[C@@]1(C#N)COCc2ccc(C(=O)NCc3cc4nc(N5CCCC5=O)ccc4cn3)cc21"
  Tgt: "BRM (Homo sapiens, UniProt P51531)"
  Observed result: "0.1 to 0.5 µM"
- Entry smiles: "C[C@@]1(F)COCc2ccc(C(=O)NCc3cc4nc(-c5ccnn(C6CC6)c5=O)ccc4cn3)cc21"
  Tgt: "BRM (Homo sapiens, UniProt P51531)"
  Observed result: "0.1 to 0.5 µM"
- Entry smiles: "COc1cc(-c2ccc3cnc(CNC(=O)c4ccc5c(c4)[C@](C)(C#N)COC5)cc3n2)c(F)cn1"
  Tgt: "BRM (Homo sapiens, UniProt P51531)"
  Observed result: "0.1 to 0.5 µM"
